test system: NCI-H292 lung cancer cells; experiment: FDA drug screening, complete media vs cholesterol-free media without statin (TABLE 1); assay type: cell-based, human
Listing of recorded Difference by entry.

MOLECULE	TARGET ENTITY	Difference
CC(=C(CCO)SSCC1CCCO1)N(C=O)Cc1cnc(C)nc1N (stereo in doubt) [Fursultiamine]	NCI-H292 lung cancer cells	−0.03
O.O.O=C([O-])CC(O)(CC(=O)[O-])C(=O)[O-].[Na+].[Na+].[Na+] [Sodium citrate (dihydrate)]	NCI-H292 lung cancer cells	0.28
O=C(O[C@H]1C[N+]2(CCCOc3ccccc3)CCC1CC2)C(O)(c1cccs1)c1cccs1.[Br-] [Aclidinium (Bromide)]	NCI-H292 lung cancer cells	−0.27
Cl.Cl.NCCc1c[nH]cn1 [Histamine (dihydrochloride)]	NCI-H292 lung cancer cells	−0.63
